Tested on: NCI-H2228
Experiment: relative viability (nuclei count vs DMSO), 5 days (fraction); higher = more cells survive
Conditions: first compound 0.253 µM
ENDPOINT: relative viability

See these solved cases before continuing.
[
  {
    "COMPOUND": "COc1nc(C)cnc1NS(=O)(=O)c1cccnc1-c1ccc(-c2nnco2)cc1 [Zibotentan] + CC(C)C[C@H](NC(=O)[C@H](Cc1ccccc1)NC(=O)c1cnccn1)B(O)O [Bortezomib] (partner 0.002 µM)",
    "REPORTED_VALUE": 0.821
  },
  {
    "COMPOUND": "COc1nc(C)cnc1NS(=O)(=O)c1cccnc1-c1ccc(-c2nnco2)cc1 [Zibotentan] + O=C(c1cc(Cc2n[nH]c(=O)c3ccccc23)ccc1F)N1CCN(C(=O)C2CC2)CC1 [Olaparib] (partner 8 µM)",
    "REPORTED_VALUE": 0.573
  },
  {
    "COMPOUND": "O=c1cc(-c2cccc3c2Sc2ccccc2S3)oc(N2CCOCC2)c1 + COc1cccc2cc(-c3nc([C@H]4CC[C@H](C(=O)O)CC4)n4ncnc(N)c34)[nH]c12 [OSI-027] (partner 0.5 µM)",
    "REPORTED_VALUE": 0.719
  },
  {
    "COMPOUND": "COc1nc(C)cnc1NS(=O)(=O)c1cccnc1-c1ccc(-c2nnco2)cc1 [Zibotentan] + O=C(CCCCCCC(=O)Nc1ccccc1)NO [Vorinostat] (partner 1 µM)",
    "REPORTED_VALUE": 0.719
  }
]

Hi team, please reply with relative viability for each item in this list.
1. COc1nc(C)cnc1NS(=O)(=O)c1cccnc1-c1ccc(-c2nnco2)cc1 [Zibotentan] + C[C@@H](Oc1cc(-c2cnn(C3CCNCC3)c2)cnc1N)c1c(Cl)ccc(F)c1Cl [Crizotinib] (partner 1 µM)
2. O=c1cc(-c2cccc3c2Sc2ccccc2S3)oc(N2CCOCC2)c1 + O=C(c1cc(Cc2n[nH]c(=O)c3ccccc23)ccc1F)N1CCN(C(=O)C2CC2)CC1 [Olaparib] (partner 8 µM)
3. COc1nc(C)cnc1NS(=O)(=O)c1cccnc1-c1ccc(-c2nnco2)cc1 [Zibotentan] + Cc1nc(NC(=O)N2CCC[C@H]2C(N)=O)sc1-c1ccnc(C(C)(C)C(F)(F)F)c1 [Alpelisib] (partner 2 µM)

output:
1. 0.369
2. 0.869
3. 0.652
